molecular target: Adenosine receptor A2a (Homo sapiens, UniProt P29274); test: Displacement of [3H]CGS-21680 from human adenosine A2A receptor transfected in HEK293 cells
Sequence (P29274 whole entry): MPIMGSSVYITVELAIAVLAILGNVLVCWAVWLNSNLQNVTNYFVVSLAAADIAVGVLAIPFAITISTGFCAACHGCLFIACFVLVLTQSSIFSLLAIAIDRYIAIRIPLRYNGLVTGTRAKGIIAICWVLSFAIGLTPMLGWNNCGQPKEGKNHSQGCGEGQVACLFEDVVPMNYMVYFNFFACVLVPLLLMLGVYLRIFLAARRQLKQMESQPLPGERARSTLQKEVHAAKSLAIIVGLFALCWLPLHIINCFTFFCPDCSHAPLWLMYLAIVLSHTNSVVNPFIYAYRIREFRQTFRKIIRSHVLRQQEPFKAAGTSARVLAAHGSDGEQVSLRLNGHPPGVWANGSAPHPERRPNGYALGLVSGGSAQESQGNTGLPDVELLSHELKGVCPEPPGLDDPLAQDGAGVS
RECORDED METRIC: pKi
Recall that pKi is obtained by taking minus log10 of the concentration measured in molar.

>  <STRUCTURE SMILES STRING>
Cc1ccccc1CNc1nc(Cl)nc2c1ncn2[C@@H]1S[C@H](C(=O)NC2CC2)[C@@H](O)[C@H]1O

>  <ASSAYED SYSTEM>
Adenosine receptor A2a (Homo sapiens, UniProt P29274)

>  <RECORDED METRIC>
pKi

>  <READING>
6.69

$$$$
>  <STRUCTURE SMILES STRING>
O=C(NC1CCC1)[C@H]1S[C@@H](n2cnc3c(NCc4cccc(I)c4)nc(Cl)nc32)[C@H](O)[C@@H]1O

>  <ASSAYED SYSTEM>
Adenosine receptor A2a (Homo sapiens, UniProt P29274)

>  <RECORDED METRIC>
pKi

>  <READING>
6.26

$$$$
>  <STRUCTURE SMILES STRING>
O=C(NC1CC1)[C@H]1S[C@@H](n2cnc3c(NCc4cccc(I)c4)nc(Cl)nc32)[C@H](O)[C@@H]1O

>  <ASSAYED SYSTEM>
Adenosine receptor A2a (Homo sapiens, UniProt P29274)

>  <RECORDED METRIC>
pKi

>  <READING>
6.49

$$$$

Turning now to a further molecule:
Problem: Please indicate pKi recorded for CNC(=O)[C@H]1S[C@@H](n2cnc3c(NC4CCCC4)nc(Cl)nc32)[C@H](O)[C@@H]1O
Result: 6.04
